Values were extracted from patent US9217014B2.

system: C. albicans R303; test: mouse candidiasis infection model, IP administration, kidney fungal burden; format: in vivo; conditions: Second run; IP 0.5 mg/kg; kidneys 24 h after infection
Collected Mean log10 CFU/kidneys (±SEM) values appear next to each entry.
Dear colleague, please return just the value in log10 CFU/kidneys, with no unit written.

Sample answers from the record:
CCCCCOc1ccc(-c2ccc(-c3ccc(C(=O)N[C@H]4C[C@@H](O)C(OCC[N+](C)(C)C)NC(=O)C5[C@@H](O)[C@@H](C)CN5C(=O)C([C@@H](C)O)NC(=O)C([C@H](O)[C@@H](O)c5ccc(O)cc5)NC(=O)C5C[C@@H](O)CN5C(=O)C([C@@H](C)O)NC4=O)cc3)cc2)cc1 (some centres unmarked) ... 2.80
CCCCCOc1ccc(-c2ccc(-c3ccc(C(=O)N[C@H]4C[C@@H](O)C(NCCN)NC(=O)C5[C@@H](O)[C@@H](C)CN5C(=O)C([C@@H](C)O)NC(=O)C([C@H](O)[C@@H](O)c5ccc(O)cc5)NC(=O)C5C[C@@H](O)CC5C(=O)C([C@@H](C)O)NC4=O)cc3)cc2)cc1 (some centres unmarked) ... 1.25
CCCCCOc1ccc(-c2ccc(-c3ccc(C(=O)N[C@H]4C[C@@H](O)C(OCCOCCN)NC(=O)C5[C@@H](O)[C@@H](C)CN5C(=O)C([C@@H](C)O)NC(=O)C([C@H](O)[C@@H](O)c5ccc(O)cc5)NC(=O)C5C[C@@H](O)CN5C(=O)C([C@@H](C)O)NC4=O)cc3)cc2)cc1 (some centres unmarked) ... 3.65
CCCCCOc1ccc(-c2ccc(-c3ccc(C(=O)N[C@H]4C[C@@H](O)C(OCCN)NC(=O)C5[C@@H](O)[C@@H](C)CN5C(=O)C([C@@H](C)O)NC(=O)C([C@H](O)[C@@H](O)c5ccc(O)cc5)NC(=O)C5C[C@@H](O)CN5C(=O)C([C@@H](C)O)NC4=O)cc3)cc2)cc1 (some centres unmarked) ... 3.38

Please find the next compound below.
So what's the measured Mean log10 CFU/kidneys (±SEM) for this one? CCCCCOc1ccc(-c2ccc(-c3ccc(C(=O)N[C@H]4C[C@@H](O)C(OCCOCC[N+](C)(C)C)NC(=O)C5[C@@H](O)[C@@H](C)CN5C(=O)C([C@@H](C)O)NC(=O)C([C@H](O)[C@@H](O)c5ccc(O)cc5)NC(=O)C5C[C@@H](O)CN5C(=O)C([C@@H](C)O)NC4=O)cc3)cc2)cc1 (some centres unmarked)
4.75
